# System: OVCAR-4 ovarian
Classes used: Yes (active), No (inactive)

molecule	category-label
O=C(Nc1ccc(Cl)cc1)c1ccc(NC2=C(Cl)C(=O)N(Cc3ccccc3)C2=O)cc1	No
CC(=O)O[C@H]1CC[C@@]2(C)C(=CC[C@H]3[C@@H]4C/C(=C\c5cccc(OCCN6CCOCC6)c5)[C@H](OC(C)=O)[C@@]4(C)CC[C@@H]32)C1	No
Cn1c(=O)c(Oc2ccccc2F)cc2cnc(NC3CCOCC3)nc21	No
CC(=O)[C@@H]1CCC=C2CC[C@]3(C)[C@@H](CC[C@@H]4[C@@]5(C)CCCNC(C)(C)[C@@H]5CC[C@]43C)[C@H]21	No
C#CC1(O)C(COP(=O)(O)OC2CC(n3cc(F)c(=O)[nH]c3=O)OC2CO)OC(n2ccc(N)nc2=O)C1O (configuration not stated)	Yes
CC(C)=CC(=O)O[C@H]1C(=O)O[C@@H]2C[C@H]3[C@H](C)C(=O)C(O[C@@H]4O[C@H](CO)[C@@H](O)[C@H](O)[C@H]4O)=C[C@]3(C)[C@H]3[C@@H](O)[C@H](O)[C@]4(C(=O)O)OC[C@]32[C@@H]14	No
Clc1ccc2[nH]cc(-c3nc(-c4c[nH]c5ncccc45)cs3)c2c1	No
COc1ccc(-c2cc(/C=C3\C(=O)Nc4ccc(Cl)cc43)[nH]n2)cc1	No
O=[N+]([O-])c1ccc(N/N=C/c2c(O)ccc3ccccc23)nc1	No
CC/C=C\C[C@H](O)C/C=C1/C(=O)C=C[C@@H]1C/C=C\CCCC(=O)N(C)C	No
COc1ccc(/C=C/c2nc(NCCCN(C)C)c3ccccc3n2)cc1	No
CC1=C[C@H]2c3c(c(O)c(O)c4oc5ccccc5c(=O)c34)[C@H](c3cc(O)c(O)c4oc5ccccc5c(=O)c34)[C@H]2C(C)(C)C1	No
CC(C)c1ccc(C(=O)Nc2sc3c(c2C#N)CCC(=O)C3)cc1	Yes
NNc1cccc(/C=C/c2ccccc2)cc1=O	No
CCOC(=O)C(=Cc1ccccc1[N+](=O)[O-])C(=O)OCC	No
COc1cc2c3c(n(CCCNCCN)c(=O)c2cc1OC)-c1cc2c(cc1C3=O)OCO2	No
OCC1OC(n2ccc3c(NO)ncnc32)C(O)C1O (configuration not stated)	Yes

* * *

# System: HCT-15 colon
# protocol-summary: NCI tumour cell line growth inhibition, 48 h
This listing pairs compounds with measured TGI.

compound	experimental-target	TGI
Cc1c2c(cc3c1[nH]c1ccccc13)C=NCC2	HCT-15 colon	61.8 µM
CCOC(=O)C1(Cc2ccccc2)CCCCCN1 (configuration not stated)	HCT-15 colon	> 100 µM
CN1NC2(CCCCC2)ON=C1c1ccccc1	HCT-15 colon	> 100 µM
Cc1ccc(OCC2OC(n3cnc4nc(Cl)nc(Cl)c43)CC2Oc2ccc(C)cc2)cc1 (configuration not stated)	HCT-15 colon	6.33 µM
CC(=O)OCC1OC(n2cc(F)c(=O)[nH]c2=O)C(N)C(OC(C)=O)C1OC(C)=O (configuration not stated)	HCT-15 colon	> 100 µM
COc1cc2c3c(c1)c1cc(OC)c(OC)cc1c[n+]3CC2	HCT-15 colon	> 100 µM
CCCCNN	HCT-15 colon	> 100 µM
NC(=O)c1nnc2cc(F)ccc2c1N	HCT-15 colon	> 100 µM
N#Cc1cnc2cc(OC[C@@H](O)CO)c(NC(=O)CC3CSSC3)cc2c1Nc1ccc(OCc2cccc(F)c2)c(Cl)c1	HCT-15 colon	6.51 µM
O=c1cc2ccccc2nn1Cc1ccccc1Cl	HCT-15 colon	> 100 µM
O=c1nc(Nc2cccc(Cl)c2)oc2cc(Cl)oc(=O)c12	HCT-15 colon	28.3 µM
Clc1ccc2[nH]cc(-c3nc(-c4c[nH]c5ncccc45)cs3)c2c1	HCT-15 colon	7.9 µM
CC1=C[C@H]2c3c(c(O)c(O)c4oc5ccccc5c(=O)c34)[C@H](c3cc(O)c(O)c4oc5ccccc5c(=O)c34)[C@H]2C(C)(C)C1	HCT-15 colon	12.9 µM
CC(C)(C)NCc1cc(C(C)(C)C)cc(-c2ccc(Cl)cc2)c1O	HCT-15 colon	25.7 µM
CN(C)c1ccc(/C=C2\N=C(NN)NC2=O)cc1	HCT-15 colon	> 100 µM
C1CCN(c2nsc(N3CCCCC3)n2)CC1	HCT-15 colon	> 100 µM
Clc1ccc2sc(-n3ccc4ccccc43)nc2c1	HCT-15 colon	> 100 µM
Nc1nnc2cc(Cl)ccc2n1	HCT-15 colon	> 100 µM
CC(=O)O[C@H]1CC[C@@]2(C)C(=CC[C@H]3[C@@H]4C/C(=C\c5cccc(OCCN6CCOCC6)c5)[C@H](OC(C)=O)[C@@]4(C)CC[C@@H]32)C1	HCT-15 colon	11.5 µM
CCCCCCCCCCCCCCCCCCNc1ccn(C2OC(COP(=O)(O)OCC3CCC(n4cnc5c(=O)[nH]cnc54)O3)C(O)C2O)c(=O)n1 (configuration not stated)	HCT-15 colon	> 100 µM
COc1cc(OC)c2c(O)c3c(cc2c1)CC(C)(C)CC3=O	HCT-15 colon	> 100 µM
CC/C=C\C[C@H](O)C/C=C1/C(=O)C=C[C@@H]1C/C=C\CCCC(=O)N(C)C	HCT-15 colon	5.87 µM
